experiment: Inhibitory activity against herpes simplex virus type 2 (HSV 2) strain 186 in Vero cells.; format: functional, cell-based
IC50 values for the compounds below.

CC(C)c1cn([C@H]2CC(O)C(CO)S2)c(=O)[nH]c1=O (stereo partly specified) = > 100 µM
O=c1[nH]c(=O)n([C@@H]2CC(O)C(CO)S2)cc1C(F)(F)F (stereo partly specified) = > 100 µM
Nc1nc2c(ncn2COCCO)c(=O)[nH]1 = 1.7 µM
O=c1[nH]c(=O)n(C2CC(O)C(CO)S2)cc1CCCl (stereo unspecified) = > 100 µM
O=c1[nH]c(=O)n(C2CC(O)C(CO)S2)cc1F (stereo unspecified) = > 10 µM

For the compound N#Cc1cn([C@H]2CC(O)C(CO)S2)c(=O)[nH]c1=O (stereo partly specified) , give its reported IC50.
> 100 µM

----------
experiment: Inhibitory activity against herpes simplex virus type 2 (HSV 2) strain 186 in Vero cells.; format: functional, cell-based
ASSAY_METRIC: IC50

COC(C)c1cn(C2CC(O)C(CO)S2)c(=O)[nH]c1=O (stereo unspecified) = > 100 µM

For the compound CCC(C)c1cn(C2CC(O)C(CO)S2)c(=O)[nH]c1=O (stereo unspecified) , give its reported IC50.
> 100 µM

For the compound CC(O)c1cn(C2CC(O)C(CO)S2)c(=O)[nH]c1=O (stereo unspecified) , give its reported IC50.
> 100 µM

----------
pIC50 values for the compounds below.
system: Human alphaherpesvirus 3; experiment: Inhibitory activity against varicella zoster virus (VZV) strain G31 in MRC-5 cells.; assay type: functional, organism-based; settings: Human alphaherpesvirus 3, MRC5
pIC50 here: minus log base 10 of the concentration, concentration in moles per litre.

For the compound O=c1[nH]c(=O)n([C@H]2CC(O)C(CO)S2)cc1C1CC1 (stereo partly specified) , give its reported pIC50.
6.30

----------
system: Human betaherpesvirus 5; assay: Inhibitory activity against human cytomegalovirus (HCMV) strain AD169 in MRC-5 cells.; type: functional, organism-based; details: Human betaherpesvirus 5, MRC5
pIC50: −log10 of the molar value.
ASSAY_METRIC: pIC50

For the compound CCC(C)c1cn(C2CC(O)C(CO)S2)c(=O)[nH]c1=O (stereo unspecified) , give its reported pIC50.
< 4.00

For the compound C=Cc1cn([C@H]2CC(O)C(CO)S2)c(=O)[nH]c1=O (stereo partly specified) , give its reported pIC50.
4.03

----------
pIC50 values for the compounds below.
system: Human betaherpesvirus 5; experiment: Inhibitory activity against human cytomegalovirus (HCMV) strain AD169 in MRC-5 cells.; format: functional, organism-based; conditions: Human betaherpesvirus 5, MRC5
pIC50: −log10 of the molar value.

COCCc1cn([C@H]2CC(O)C(CO)S2)c(=O)[nH]c1=O (stereo partly specified) = < 4.00
N#Cc1cn([C@H]2CC(O)C(CO)S2)c(=O)[nH]c1=O (stereo partly specified) = < 4.00
O=c1[nH]c(=O)n([C@H]2CC(O)C(CO)S2)cc1CC(F)(F)F (stereo partly specified) = < 4.00
CC(=O)c1cn(C2CC(O)C(CO)S2)c(=O)[nH]c1=O (stereo unspecified) = < 4.00
O=c1[nH]c(=O)n([C@H]2CC(O)C(CO)S2)cc1Cl (stereo partly specified) = 6.70

For the compound O=c1[nH]c(=O)n([C@H]2CC(O)C(CO)S2)cc1I (stereo partly specified) , give its reported pIC50.
5.40

For the compound CC(C)c1cn([C@H]2CC(O)C(CO)S2)c(=O)[nH]c1=O (stereo partly specified) , give its reported pIC50.
< 4.00

For the compound O=c1[nH]c(=O)n([C@H]2CC(O)C(CO)S2)cc1C1CC1 (stereo partly specified) , give its reported pIC50.
< 4.00

For the compound CC(O)c1cn(C2CC(O)C(CO)S2)c(=O)[nH]c1=O (stereo unspecified) , give its reported pIC50.
< 4.00

For the compound C#CCc1cn([C@H]2CC(O)C(CO)S2)c(=O)[nH]c1=O (stereo partly specified) , give its reported pIC50.
4.00

For the compound O=c1[nH]c(=O)n([C@@H]2CC(O)C(CO)S2)cc1C(F)(F)F (stereo partly specified) , give its reported pIC50.
< 4.00

----------
test system: Vero; experiment: Inhibitory dose required to reduce the growth of vero cells by 50% over a 4 day period.; format: functional, Chlorocebus sabaeus
ASSAY_METRIC: CCID50

A selection of reference data follows.
C#CCc1cn([C@H]2CC(O)C(CO)S2)c(=O)[nH]c1=O (stereo partly specified) = 492 µM
CCCc1cn([C@H]2CC(O)C(CO)S2)c(=O)[nH]c1=O (stereo partly specified) = >100 µM
O=c1[nH]c(=O)n([C@H]2CC(O)C(CO)S2)cc1C=C(F)F (stereo partly specified) = >500 µM
O=C1NC(=O)N(C2CC(O)C(CO)S2)C2CCCC12 (stereo unspecified) = >500 µM
O=c1[nH]c(=O)n([C@H]2CC(O)C(CO)S2)cc1C1CC1 (stereo partly specified) = >500 µM

For the next question, use this compound.
For the compound O=c1[nH]c(=O)n([C@H]2CC(O)C(CO)S2)cc1CCF (stereo partly specified) , give its reported CCID50.
>500 µM

----------
test system: Human betaherpesvirus 5; assay: Inhibitory activity against human cytomegalovirus (HCMV) strain AD169 in MRC-5 cells.; type: functional, organism-based; settings: Human betaherpesvirus 5, MRC5
pIC50: −log10 of the molar value.
ASSAY_METRIC: pIC50

For the compound O=c1[nH]c(=O)n([C@H]2CC(O)C(CO)S2)cc1/C=C/Cl (some centres undefined) , give its reported pIC50.
< 4.00

----------
system: Vero; assay: Inhibitory dose required to reduce the growth of vero cells by 50% over a 4 day period.; format: functional, Chlorocebus sabaeus
ASSAY_METRIC: CCID50

A selection of reference data follows.
O=c1[nH]c(=O)n(C2CC(O)C(CO)S2)cc1CCCl (stereo unspecified) = >200 µM
CCc1cn([C@H]2CC(O)C(CO)S2)c(=O)[nH]c1=O (stereo partly specified) = >100 µM
O=c1[nH]c(=O)n([C@H]2CC(O)C(CO)S2)cc1CC(F)(F)F (stereo partly specified) = >500 µM
CC(C)c1cn([C@H]2CC(O)C(CO)S2)c(=O)[nH]c1=O (stereo partly specified) = >500 µM
O=c1[nH]c(=O)n([C@H]2CC(O)C(CO)S2)cc1C(F)=C(Cl)Cl (stereo partly specified) = >500 µM
O=c1[nH]c(=O)n([C@H]2C[C@H](O)[C@@H](CO)O2)cc1/C=C/Br = >250 µM
N#Cc1cn([C@H]2CC(O)C(CO)S2)c(=O)[nH]c1=O (stereo partly specified) = >500 µM
O=c1[nH]c(=O)n([C@H]2CC(O)C(CO)S2)cc1Cl (stereo partly specified) = 59 µM

For the compound CCc1cn([C@@H]2CC(O)C(CO)S2)c(=O)[nH]c1=O (stereo partly specified) , give its reported CCID50.
>100 µM

For the compound CCC(C)c1cn(C2CC(O)C(CO)S2)c(=O)[nH]c1=O (stereo unspecified) , give its reported CCID50.
>500 µM

For the compound O=c1[nH]c(=O)n([C@H]2CC(O)C(CO)S2)cc1Br (stereo partly specified) , give its reported CCID50.
>500 µM

----------
test system: Human alphaherpesvirus 3; assay: Inhibitory activity against varicella zoster virus (VZV) strain G31 in MRC-5 cells.; assay type: functional, organism-based; conditions: Human alphaherpesvirus 3, MRC5
pIC50: −log10 of the molar value.
pIC50 values for the compounds below.

A selection of reference data follows.
O=c1[nH]c(=O)n([C@H]2CC(O)C(CO)S2)cc1Cl (some centres undefined) = < 4.40
O=c1[nH]c(=O)n([C@H]2CC(O)C(CO)S2)cc1C=C(F)F (some centres undefined) = < 5.00
O=c1[nH]c(=O)n([C@H]2CC(O)C(CO)S2)cc1I (some centres undefined) = 5.46

For the compound CC(=O)c1cn(C2CC(O)C(CO)S2)c(=O)[nH]c1=O (centres undefined) , give its reported pIC50.
< 5.00

For the compound CCc1cn([C@@H]2CC(O)C(CO)S2)c(=O)[nH]c1=O (some centres undefined) , give its reported pIC50.
< 4.00

For the compound O=c1[nH]c(=O)n([C@@H]2CC(O)C(CO)S2)cc1[N+](=O)[O-] (some centres undefined) , give its reported pIC50.
< 4.00

----------
assay: Inhibitory activity against herpes simplex virus type 2 (HSV 2) strain 186 in Vero cells.; format: functional, cell-based
ASSAY_METRIC: IC50

O=c1[nH]c(=O)n([C@H]2CC(O)C(CO)S2)cc1/C=C/Cl (stereo partly drawn) = > 100 µM
C=C(C)c1cn([C@H]2CC(O)C(CO)S2)c(=O)[nH]c1=O (stereo partly drawn) = > 100 µM
Nc1nc(O)c2ncn(CCC(CO)CO)c2n1 = 12.8 µM
O=c1[nH]c(=O)n([C@H]2CC(O)C(CO)S2)cc1Cl (stereo partly drawn) = > 100 µM

For the compound C#CCc1cn([C@H]2CC(O)C(CO)S2)c(=O)[nH]c1=O (stereo partly drawn) , give its reported IC50.
> 100 µM

For the compound `O=c1[nH]c(=O)n([C@H]2C[C@H](O)[C@@H](CO)O2)cc1/C=C/Br` , give its reported IC50.
10 µM

For the compound COCc1cn(C2CC(O)C(CO)S2)c(=O)[nH]c1=O (stereo not drawn) , give its reported IC50.
> 10 µM

For the compound O=c1[nH]c(=O)n([C@H]2CC(O)C(CO)S2)cc1Br (stereo partly drawn) , give its reported IC50.
> 100 µM

For the compound O=c1[nH]c(=O)n([C@H]2CC(O)C(CO)S2)cc1C12CC3CC(CC(C3)C1)C2 (stereo partly drawn) , give its reported IC50.
> 100 µM

For the compound O=c1[nH]c(=O)n([C@@H]2CC(O)C(CO)S2)cc1[N+](=O)[O-] (stereo partly drawn) , give its reported IC50.
> 100 µM

For the compound COCCc1cn([C@H]2CC(O)C(CO)S2)c(=O)[nH]c1=O (stereo partly drawn) , give its reported IC50.
> 100 µM

For the compound CCc1cn([C@@H]2CC(O)C(CO)S2)c(=O)[nH]c1=O (stereo partly drawn) , give its reported IC50.
> 100 µM

For the compound CSCc1cn(C2CC(O)C(CO)S2)c(=O)[nH]c1=O (stereo not drawn) , give its reported IC50.
> 100 µM

For the compound O=C1NC(=O)N(C2CC(O)C(CO)S2)C2CCCC12 (stereo not drawn) , give its reported IC50.
> 100 µM

For the compound CCCc1cn([C@H]2CC(O)C(CO)S2)c(=O)[nH]c1=O (stereo partly drawn) , give its reported IC50.
> 10 µM

For the compound CC(C)(C)c1cn([C@H]2CC(O)C(CO)S2)c(=O)[nH]c1=O (stereo partly drawn) , give its reported IC50.
> 100 µM

For the compound O=c1[nH]c(=O)n([C@H]2CC(O)C(CO)S2)cc1I (stereo partly drawn) , give its reported IC50.
10 µM

For the compound O=c1[nH]c(=O)n([C@H]2CC(O)C(CO)S2)cc1C(F)(F)F (stereo partly drawn) , give its reported IC50.
15 µM

For the compound CC(=O)c1cn(C2CC(O)C(CO)S2)c(=O)[nH]c1=O (stereo not drawn) , give its reported IC50.
> 10 µM

For the compound O=c1[nH]c(=O)n([C@H]2CC(O)C(CO)S2)cc1CCF (stereo partly drawn) , give its reported IC50.
> 100 µM

For the compound O=c1[nH]c(=O)n([C@H]2CC(O)C(CO)S2)cc1C=C(F)F (stereo partly drawn) , give its reported IC50.
> 100 µM

For the compound C#Cc1cn([C@H]2CC(O)C(CO)S2)c(=O)[nH]c1=O (stereo partly drawn) , give its reported IC50.
> 10 µM

# credit: ChEMBL document CHEMBL1129482
